Tested on: RPMI-8226 leukemia
Experiment: NCI-60 one-dose screen, 48 h (100 = growth as untreated, 0 = no growth, -100 = all killed)
Details: 10 µM unless noted
The panel holds about 83,000 compounds, 20% with a hit somewhere; the sample as a whole holds those more often.
Catalogue of growth values
Expressed in %, but write only the number.

Look over these answered cases.
c1ccc(CCN2CCCCC2)nc1    94.3
COC(=O)C1=CO[C@@H](C)[C@@H]2CN3CCc4c([nH]c5cc(OC)ccc45)[C@@H]3C[C@H]12    94.3
O=P1(N(CCCl)CCCl)NCCCO1 (centres undefined)    103

Next compound, growth to be filled in.
Q: Assign growth to the following record: CCCCOC(N)=O
Result: 114
